Reference source: ChEMBL document CHEMBL5252668

Target: GTPase KRas (Homo sapiens, UniProt P01116, G12D)
Sequence (P01116 whole entry G12D): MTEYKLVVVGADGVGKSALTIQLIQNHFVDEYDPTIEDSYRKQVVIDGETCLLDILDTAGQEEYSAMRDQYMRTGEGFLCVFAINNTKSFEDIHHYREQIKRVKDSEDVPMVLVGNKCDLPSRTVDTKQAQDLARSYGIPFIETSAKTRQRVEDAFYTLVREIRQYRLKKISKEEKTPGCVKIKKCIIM
PARAMETER MEASURED: IC50 (nM)

| COMPOUND | IC50 (nM) |
| --- | --- |
| Oc1cc(-c2ncc3c(N4CCCC5(CCO5)C4)nc(OC[C@@]45CCCN4C[C@H](F)C5)nc3c2F)c2c(F)c(F)ccc2c1 (stereo partly specified) | 9 |
| C#Cc1c(F)ccc2cc(O)cc(-c3ncc4c(N5CCCC6(CCO6)C5)nc(OC[C@@]56CCCN5C[C@H](F)C6)nc4c3F)c12 (stereo partly specified) | 43 |
| CCc1cccc2cc(O)cc(-c3ncc4c(N5CCCC6(CCO6)C5)nc(OC[C@@]56CCCN5C[C@H](F)C6)nc4c3F)c12 (stereo partly specified) | 11 |
| CCc1cccc2cc(O)cc(-c3ncc4c(N5CCCC6(CC(O)C6)C5)nc(OC[C@@]56CCCN5C[C@H](F)C6)nc4c3F)c12 (stereo partly specified) | 22 |

[I] Oc1cc(-c2ncc3c(N4CCC[C@]5(CCO5)C4)nc(OC[C@@]45CCCN4C[C@H](F)C5)nc3c2F)c2c(Cl)c(F)ccc2c1
[II] Oc1cc(-c2ncc3c(N4CCCC5(CC(O)C5)C4)nc(OC[C@@]45CCCN4C[C@H](F)C5)nc3c2F)c2c(F)c(F)ccc2c1 (stereo partly specified)
Incoming: Rank I against II by their IC50 values and give the higher one. Selection: enter the item's label.
Outgoing: II
(II: 119 nM, I: 3 nM)
